# Tested on: TNF-α production by human monocyte strain THP-1 cells stimulated with LPS
# Run Description: Inhibition of LPS-induced TNF-α production in THP-1 cells (ELISA)
# Assay type: cell-based
# Condition Summary: Homo sapiens, 2 h; compound 10^−5M; THP-1 cells 10^6 cells/ml; LPS 2 μg/ml; 37° C., two hours; read-out: Rate of Inhibition (%) of TNF-α production
Where a name gives a salt, the structure may show the parent alone.
Exercise: for every item that follows, state its recorded inhibition at 10 µM.
Numbers only, in %.

Worked cases, answers included:
| Compound | inhibition at 10 µM [%] |
| --- | --- |
| CC(C)CCN(CCN)C(=O)N[C@H](CSSC[C@H](Cc1ccccc1)NC(=O)N(CCN)CCC(C)C)Cc1ccccc1 [Compound 8-1, di-hydrochloride] | 81 |
| CC(=O)SC[C@H](Cc1ccc(-c2ccccc2)cc1)NC(=O)N(CCC(C)C)CCN(C)C [Compound 6-11] | 76 |
| CC(=O)SCCN(CCc1ccccc1)C(=O)N[C@@H](Cc1ccccc1)CN(C)C [Compound 6-3] | 83 |

Now examine the next entry.
query: Form field: reported inhibition at 10 µM of CC(=O)SC[C@H](Cc1ccccc1)NC(=O)N(CCC(C)C)CCN(C)C [Compound 6-8]
result: 60
